- Test system: KM12
- Test protocol: Growth inhibition of human KM12 cells at 10 uM after 48 hrs by SRB assay
- Assay type: functional
- Condition summary: KM12, 48 h, read-out: GI
Measurement label: inhibition of growth at 10 µM

- Cc1ccc(C(=O)Nc2ccc(Cl)cc2C(=O)Nc2ccccn2)cc1: 11%
- Cc1ccc(-c2nc3ccc(Cl)cc3c3nnnn23)cc1: < 10%
- Cc1ccc(C2=Nc3ccc(Cl)cc3C3=NNCC(=O)NN23)cc1: < 10%
- Cc1ccc(C(=O)Nc2ccc(Cl)cc2C(=O)Nc2ccccc2)cc1: < 10%
- Cc1ccc(-c2nc3ccc(Cl)cc3c(=O)n2NC(=O)CN)cc1: < 10%
- Cc1ccc(-c2nc3ccc(Cl)cc3c(=O)n2/N=C/c2ccccc2)cc1: 18%
- Cc1ccc(C(=O)Nc2ccc(Cl)cc2C(=O)NCc2ccccc2)cc1: 40%
- Cc1ccc(-c2nc3ccc(Cl)cc3c3nnc(S)n23)cc1: 11%
- Cc1ccc(-c2nc3ccc(Cl)cc3c(=O)n2NC(=O)CNN)cc1: 21%

====

- System: K562
- Test protocol: Growth inhibition of human K562 cells at 10 uM after 48 hrs by SRB assay
- Assay type: functional
- Condition summary: K562, 48 h, read-out: GI
Measurement label: inhibition of growth at 10 µM

* Cc1ccc(-c2nc3ccc(Cl)cc3c(=O)n2NC(=O)CN)cc1 | < 10%
* Cc1ccc(-c2nc3ccc(Cl)cc3c3nnc(S)n23)cc1 | 11%
* Cc1ccc(-c2nc3ccc(Cl)cc3c3nnnn23)cc1 | 11%
* Cc1ccc(C(=O)Nc2ccc(Cl)cc2C(=O)Nc2ccccn2)cc1 | 35%
* Cc1ccc(C2=Nc3ccc(Cl)cc3C3=NNCC(=O)NN23)cc1 | < 10%
* Cc1ccc(C(=O)Nc2ccc(Cl)cc2C(=O)NCc2ccccc2)cc1 | 70%
* Cc1ccc(-c2nc3ccc(Cl)cc3c(=O)n2/N=C/c2ccccc2)cc1 | < 10%
* Cc1ccc(-c2nc3ccc(Cl)cc3c(=O)n2NC(=O)CNN)cc1 | 11%

====

- Test system: ACHN
- Test protocol: Growth inhibition of human ACHN cells at 10 uM after 48 hrs by SRB assay
- Assay type: functional
- Condition summary: read-out: GI
Measurement label: inhibition of growth at 10 µM (%)

• Cc1ccc(-c2nc3ccc(Cl)cc3c(=O)n2NC(=O)CNN)cc1 = 42
• Cc1ccc(-c2nc3ccc(Cl)cc3c(=O)n2NC(=O)CN)cc1 = 14
• Cc1ccc(-c2nc3ccc(Cl)cc3c(=O)n2/N=C/c2ccccc2)cc1 = 74
• Cc1ccc(C(=O)Nc2ccc(Cl)cc2C(=O)Nc2ccccc2)cc1 = 17
• Cc1ccc(C(=O)Nc2ccc(Cl)cc2C(=O)NCc2ccccc2)cc1 = 14

====

molecules and their reported inhibition of growth at 10 µM
- Test system: NCI-H226
- Test protocol: Growth inhibition of human NCI-H226 cells at 10 uM after 48 hrs by SRB assay
- Format: functional
- Condition summary: NCI-H226, 48 h, read-out: GI
Measurement label: inhibition of growth at 10 µM

• Cc1ccc(C(=O)Nc2ccc(Cl)cc2C(=O)NCc2ccccc2)cc1 = < 10%
• Cc1ccc(C(=O)Nc2ccc(Cl)cc2C(=O)Nc2ccccc2)cc1 = < 10%
• Cc1ccc(C2=Nc3ccc(Cl)cc3C3=NNCC(=O)NN23)cc1 = < 10%
• Cc1ccc(C(=O)Nc2ccc(Cl)cc2C(=O)Nc2ccccn2)cc1 = < 10%
• Cc1ccc(-c2nc3ccc(Cl)cc3c3nnnn23)cc1 = < 10%
